- system-tested: Human Serotonin Transporter (hSERT) (Homo sapiens, UniProt P31645)
- Construct: expressed in transfected cells; membranes prepared from them
- Sequence (P31645 whole entry): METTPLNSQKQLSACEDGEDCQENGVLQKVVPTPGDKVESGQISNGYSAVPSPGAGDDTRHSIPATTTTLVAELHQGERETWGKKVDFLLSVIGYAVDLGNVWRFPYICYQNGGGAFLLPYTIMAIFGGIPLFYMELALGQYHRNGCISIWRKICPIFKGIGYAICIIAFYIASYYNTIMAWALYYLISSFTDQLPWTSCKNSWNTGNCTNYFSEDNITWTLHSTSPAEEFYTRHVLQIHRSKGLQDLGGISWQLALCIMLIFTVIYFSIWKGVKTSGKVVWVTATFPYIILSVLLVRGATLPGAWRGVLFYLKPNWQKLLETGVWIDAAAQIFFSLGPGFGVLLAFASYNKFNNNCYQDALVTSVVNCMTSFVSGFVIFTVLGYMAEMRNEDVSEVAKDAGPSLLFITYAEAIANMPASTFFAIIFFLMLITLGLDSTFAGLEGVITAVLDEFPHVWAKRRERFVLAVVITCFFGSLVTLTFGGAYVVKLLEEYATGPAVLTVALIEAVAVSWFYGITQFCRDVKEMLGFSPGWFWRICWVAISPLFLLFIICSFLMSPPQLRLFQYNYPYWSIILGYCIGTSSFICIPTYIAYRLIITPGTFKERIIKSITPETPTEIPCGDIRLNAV
- experiment: Human Serotonin Transporter (hSERT) Scintillation Proximity Assay (SPA), competition with [3H]-Citalopram
- Type: binding
- conditions-used: membranes of HEK-293 cells expressing recombinant hSERT, Ki by Cheng-Prusoff, read-out: pKi SERT (converted)
Please assign 0 (no) whenever Ki is at or above 50 nM, and 1 (yes) whenever it is below.

compound | group-label
CNCCC(c1ccccc1)c1ccc2[nH]nc(C)c2c1 (stereo not shown) | 1 (yes)
CNCC[C@H](c1ccccc1)c1cc(C)c2[nH]ncc2c1 | 1 (yes)
CNCCC(c1ccc2[nH]ccc2c1)c1ccc2nccnc2c1 (stereo not shown) | 1 (yes)
CNCCC(c1ccc2[nH]ccc2c1)c1cccc2cc[nH]c12 (stereo not shown) | 1 (yes)
CCOc1n[nH]c2ccc(C(CCNC)c3ccccc3)cc12 (stereo not shown) | 1 (yes)
CNCCC(c1ccc2c(c1)OCCN2C)c1ccc2[nH]ccc2c1 (stereo not shown) | 0 (no)
CNCCC(c1ccccc1)c1ccc2[nH]nc(OCC3CC3)c2c1 (stereo not shown) | 0 (no)
CNCCC(c1ccccc1)c1cc(F)c2[nH]cc(C#N)c2c1 (stereo not shown) | 1 (yes)
CNCCC(c1ccccc1)c1ccc2occc2c1 (stereo not shown) [Compound 142] | 1 (yes)
CNCCC(c1ccccc1)c1ccc2sccc2c1 (stereo not shown) | 1 (yes)

----------
- system-tested: Human Norepinephrine Transporter (hNET) (Homo sapiens)
- Sequence (P23975 whole entry): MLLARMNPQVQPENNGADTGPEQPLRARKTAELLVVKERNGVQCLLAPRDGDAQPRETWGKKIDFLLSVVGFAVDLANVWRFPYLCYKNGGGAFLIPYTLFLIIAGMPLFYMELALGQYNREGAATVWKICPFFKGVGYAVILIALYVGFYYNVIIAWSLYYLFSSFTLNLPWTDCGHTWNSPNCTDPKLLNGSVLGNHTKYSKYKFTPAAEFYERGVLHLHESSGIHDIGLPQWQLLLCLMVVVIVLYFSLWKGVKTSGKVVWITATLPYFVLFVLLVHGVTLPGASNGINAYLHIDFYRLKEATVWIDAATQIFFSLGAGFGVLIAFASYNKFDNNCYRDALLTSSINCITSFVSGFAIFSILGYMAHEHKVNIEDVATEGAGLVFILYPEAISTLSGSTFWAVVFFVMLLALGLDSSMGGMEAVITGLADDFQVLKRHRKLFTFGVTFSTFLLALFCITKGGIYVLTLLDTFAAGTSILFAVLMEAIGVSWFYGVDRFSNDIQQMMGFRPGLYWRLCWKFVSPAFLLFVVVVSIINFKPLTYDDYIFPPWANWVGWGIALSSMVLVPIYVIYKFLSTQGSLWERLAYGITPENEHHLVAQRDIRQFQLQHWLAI
- experiment: Human Norepinephrine Transporter (hNET) Scintillation Proximity Assay (SPA), competition with [3H]-Nisoxetine
- conditions-used: pKi NET, membranes of HEK-293 cells expressing recombinant hNET, Ki by Cheng-Prusoff
pKi: −log10 of the molar value.
test-readout: pKi

compound | system-tested | obs-value
CNCCC(c1ccc2[nH]ccc2c1)c1ccc2cc[nH]c2c1 (centres unmarked) [Compound 117] | Human Norepinephrine Transporter (hNET) (Homo sapiens) | 8.23
CNCC[C@H](c1ccccc1)c1cc(Cl)c2[nH]ncc2c1 [Compound 84] | Human Norepinephrine Transporter (hNET) (Homo sapiens) | 8.11
CNCCC(c1ccc2[nH]ccc2c1)c1nc2ccccc2s1 (centres unmarked) [Compound 140] | Human Norepinephrine Transporter (hNET) (Homo sapiens) | 8.03
CNCCC(c1ccccc1)c1ccc2sccc2c1 (centres unmarked) [Compound 143] | Human Norepinephrine Transporter (hNET) (Homo sapiens) | 8.81
CNCCC(c1ccccc1)c1cc(C(F)(F)F)c2[nH]ncc2c1 (centres unmarked) [Compound 85] | Human Norepinephrine Transporter (hNET) (Homo sapiens) | 7.82
